Where do these numbers come from? They come from ChEMBL document CHEMBL1144948.

- measurementProtocol: Half life period as average of four rats at each dose of 5 mg/kg intravenous and 16 mg/kg peroral administration
- Assay type: ADME, organism-based
- experimentalConditions: rat, in vivo
quantityKind: half-life (h)
Answers are plain numbers, in h.

Q) Request the reported half-life associated with c1ccc(-n2cnc3cc(-c4ccc(OCCN5CCCCC5)cc4)ccc32)cc1
A) 6.1

* * *

Provide the recorded solubility for the entries that follow.
- measurementProtocol: Solubility at pH 5.2
- Format: physicochemical
- experimentalConditions: buffer
Give bare numbers, in µg/mL.

c1ccc(-n2cnc3cc(-c4ccc(OCCN5CCCCC5)cc4)cnc32)cc1 | 6460

Q) What measured solubility goes with c1ccc(-n2cnc3cc(-c4ccc(OCCN5CCCCC5)cc4)ccc32)cc1 ?
A) 120
